# assay_system: Serine/threonine-protein kinase PLK1 (Homo sapiens) (UniProt P53350)
# Sequence (P53350 whole entry, looked up): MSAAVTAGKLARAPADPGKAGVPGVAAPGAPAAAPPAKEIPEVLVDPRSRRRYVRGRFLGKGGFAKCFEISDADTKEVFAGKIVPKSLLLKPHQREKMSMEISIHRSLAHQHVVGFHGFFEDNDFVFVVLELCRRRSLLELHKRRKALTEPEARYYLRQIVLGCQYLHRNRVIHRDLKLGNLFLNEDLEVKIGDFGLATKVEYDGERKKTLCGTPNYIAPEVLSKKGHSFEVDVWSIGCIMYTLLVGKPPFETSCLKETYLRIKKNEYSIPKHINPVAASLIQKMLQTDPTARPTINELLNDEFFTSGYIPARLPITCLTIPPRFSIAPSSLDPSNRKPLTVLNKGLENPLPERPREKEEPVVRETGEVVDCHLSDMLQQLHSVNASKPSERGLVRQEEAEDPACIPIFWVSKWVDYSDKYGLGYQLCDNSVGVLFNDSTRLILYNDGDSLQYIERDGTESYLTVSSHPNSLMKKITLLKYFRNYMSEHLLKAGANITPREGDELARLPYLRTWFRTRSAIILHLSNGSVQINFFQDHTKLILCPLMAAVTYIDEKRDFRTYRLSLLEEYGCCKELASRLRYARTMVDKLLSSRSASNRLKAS
# method_description: PLK1 kinase activity inhibitors, confirmation, biochemical, analogue series, repeat of primary screen (AID 1264)
# setup_conditions: recombinant PLK1 kinase, TR-FRET phosphopeptide binding; at 10 µM; hits give high values
reported_endpoint: inhibition (%)
Lab book: enter the figure in %, no units written.

Fill in the blank: the reported inhibition of `O=C(NCCc1nc(-c2ccccc2)no1)c1ccccc1` is ____.
-5.02

Fill in the blank: the reported inhibition of Cc1ccc(C2=CC(c3ccc(C)cc3)n3ncnc3N2)cc1 (centres undefined) is ____.
-1.39

Fill in the blank: the reported inhibition of `CCOc1ccc(NC(=O)c2ccc(F)cc2F)cc1` is ____.
-2.77

* * *

Measured inhibition values are reported for all entries that follow.
# assay_system: Serine/threonine-protein kinase PLK1 (Homo sapiens)
# method_description: PLK1 kinase activity inhibitors, confirmation, biochemical, analogue series, repeat of primary screen (AID 1264)
# setup_conditions: recombinant PLK1 kinase, TR-FRET phosphopeptide binding; at 10 µM; hits give high values
Lab book: enter the figure in %, no units written.

Reference set, count: 5
{"compound": "CCOC(=O)c1cccc(NC(=O)c2c(O)[nH]c(=O)[nH]c2=O)c1", "assay_system": "Serine/threonine-protein kinase PLK1 (Homo sapiens)", "unit_name": "%", "inhibition": -17.6}
{"compound": "CC(C)(C)C(=O)NCCc1nc(-c2ccccc2)no1", "assay_system": "Serine/threonine-protein kinase PLK1 (Homo sapiens)", "unit_name": "%", "inhibition": 0.116}
{"compound": "O=C(NCCc1nc(-c2ccccc2)no1)c1ccco1", "assay_system": "Serine/threonine-protein kinase PLK1 (Homo sapiens)", "unit_name": "%", "inhibition": -16.1}
{"compound": "CC(C)C(=O)NCCc1nc(-c2ccc(Cl)cc2)no1", "assay_system": "Serine/threonine-protein kinase PLK1 (Homo sapiens)", "unit_name": "%", "inhibition": -14.7}
{"compound": "CCC(=O)NCCCc1nc(-c2ccccc2)no1", "assay_system": "Serine/threonine-protein kinase PLK1 (Homo sapiens)", "unit_name": "%", "inhibition": -3.38}

For the next question, use this compound.
Fill in the blank: the reported inhibition of `CCOC(=O)CCCCCNC(=O)c1ccc(F)cc1F` is ____.
-1.76

* * *

# assay_system: Serine/threonine-protein kinase PLK1 (Homo sapiens)
# method_description: PLK1 kinase activity inhibitors, confirmation, biochemical, analogue series, repeat of primary screen (AID 1264)
# setup_conditions: recombinant PLK1 kinase, TR-FRET phosphopeptide binding; at 10 µM; hits give high values
Measured inhibition values are reported for all entries that follow.
Lab book: enter the figure in %, no units written.

Reference set, count: 4
{"molecule": "Cc1cccc(N/N=C/c2c(O)[nH]c(=S)[nH]c2=O)c1", "inhibition, %": -7.37}
{"molecule": "Cc1ccc(C2C=C(c3ccccc3)Nc3ncnn32)cc1 (stereo not given)", "inhibition, %": -8.59}
{"molecule": "CCCC(=O)NC(C)c1nc(-c2ccc(C)cc2)no1 (stereo not given)", "inhibition, %": -6.32}
{"molecule": "Cc1ccc(C2=CC(c3ccccc3)n3ncnc3N2)cc1 (stereo not given)", "inhibition, %": -16.9}

For the next question, use this molecule.
Fill in the blank: the reported inhibition of `CC(C)C(=O)NCCc1nc(-c2ccccc2)no1` is ____.
-10.1
